Test system: OVCAR-3 ovarian
Experiment: NCI tumour cell line growth inhibition, 48 h
measurement.type: TGI

Before answering, review these 2 worked examples.
molecule	TGI
CNC1C(OC2C(OC3C(O)C(O)C(O)C(O)C3O)OC(C)C2(O)CO)OC(CO)C(O)C1O (stereo not drawn) (tested in a mixture with another compound)	> 100 µM
CC(=O)O[C@H]1[C@@H](N2CCN(C)CC2)C[C@H]2[C@@H]3CC=C4C[C@@H](N5CCCC5)CC[C@]4(C)[C@H]3CC[C@@]21C	> 100 µM

// next item, TGI requested
Look up TGI for this molecule: CC(C)Oc1ccc(C(=O)N[C@H](CNC(=O)CN(C)C)Cc2ccc(-c3cn4cccc([C@H](C)O)c4n3)cc2)cc1Cl
15.7 µM

###

System: EKVX NSCLC
Experiment: NCI tumour cell line growth inhibition, 48 h
Each entry below lists one item and its recorded TGI value.

Before answering, review these 8 worked examples.
molecule	observed.result
CCCCCCCCCC(CCCC(O)CC(=O)O)OC1OC(COC2OC(C)C(O)C(O)C2O)C(O)C(O)C1OC1OC(CO)C(O)C(O)C1OC1OC(C)C(O)C(O)C1O (centres undefined)	> 40 µM
CCC(/C(=N\Nc1c(Cl)cc(Cl)cc1Cl)c1ccccc1)n1ccnc1C (centres undefined)	35.9 µM
Cc1cc(-c2ccccc2)cc2[n+]1CC=C2	> 100 µM
CC(=O)Nc1sc2c(c1-c1nc3ccccc3s1)CNC2	21.9 µM
CC1(C)OC(=O)C(=C2CC(c3ccccc3)c3ccccc32)C(=O)O1 (centres undefined)	> 100 µM
Cc1ccccc1/C=C1\CN(C(=O)OC(C)(C)C)C/C(=C\c2ccccc2C)C1=O	6.88 µM
S=C1SC(c2ccc(Cl)cc2)(c2ccc(Cl)cc2)c2ccccc21	> 100 µM
Cc1ccc(S(=O)(=O)n2cc(-c3nnnn3-c3ccc(Cl)cc3)c(=O)c3ccccc32)cc1	> 100 µM

// next item, TGI requested
Field: TGI (EKVX NSCLC). Entry: C=C(C(=O)O)[C@@H]1C[C@@H]2O[C@H]1CC(C)=CCC/C(C)=C/CC[C@@]2(C)O
> 100 µM

###

Each entry below lists one item and its recorded TGI value.
System: K-562 leukemia
Test: NCI tumour cell line growth inhibition, 48 h

Before answering, review these 3 worked examples.
compound	measurement.type	observed.result
COc1cc(C=O)c(-c2cc3c(cc2C=O)OCO3)c(OC)c1OC	TGI	> 290 µM
C[C@@]1(N2C(=O)OC[C@@H]2c2ccccc2)C(=O)N([C@H](CC(=O)N2CCC(N3CCCCC3)CC2)C(=O)NCc2cccc(C(F)(F)F)c2)[C@@H]1/C=C/c1ccccc1	TGI	4.82 µM
Cc1cc(C#N)c(Nc2c(C)cccc2[N+](=O)[O-])s1	TGI	> 100 µM

// next item, TGI requested
Look up TGI for this compound: N=c1ccn2c(n1)O[C@@H]1[C@@H](O)[C@H](CO)O[C@@H]12
> 100 µM

###

System: OVCAR-8 ovarian
Assay: NCI tumour cell line growth inhibition, 48 h
Each entry below lists one item and its recorded TGI value.

Before answering, review these 6 worked examples.
compound	TGI
C[C@]12CCC(=O)C=C1CC[C@@H]1C2CC[C@]2(C)Nc3c(ncn3-c3ccc(F)cc3)CC12 (some centres not stated)	> 100 µM
CCNCCCCNCC	> 3750 µM
O=C(O)C1OC(Oc2cc(O)c3c(=O)cc(-c4ccc(O)cc4)oc3c2)C(O)C(O)C1O (configuration not stated)	> 100 µM
O=S(=O)(NCCCNc1cc(-c2cn(-c3ccccc3)nc2-c2cccc(O)c2)ccn1)c1ccc(Cl)cc1	6.06 µM
COc1ccc(/C=C/C(=O)c2ccc(Nc3ccnc4cc(Cl)ccc34)cc2)cc1	> 100 µM
CC(C)=CCC[C@H](C)[C@H]1CC[C@@H](C)c2cc(O)c(C)cc21	35.6 µM

// next item, TGI requested
Look up TGI for this compound: NC(CCCCNC(=O)C(Cc1ccccc1)NC(=O)OCc1ccccc1)C(=O)NC(CCCCNC(=O)C(Cc1ccccc1)NC(=O)OCc1ccccc1)C(=O)NC(CCCCNC(=O)C(Cc1ccccc1)NC(=O)OCc1ccccc1)C(=O)NC(CCCCNC(=O)C(Cc1ccccc1)NC(=O)OCc1ccccc1)C(=O)NC(CCCCNC(=O)C(Cc1ccccc1)NC(=O)OCc1ccccc1)C(=O)NC(CCCCNC(=O)C(Cc1ccccc1)NC(=O)OCc1ccccc1)C(=O)O (configuration not stated)
> 100 µM
